# SYSTEM: T1, recombinant human Cathepsin B (Homo sapiens, UniProt P07858)
# T1 construct: purchased R&D Systems (Bio-Techne AG) 953-CY-010
# MEASUREMENT NOTES: Recombinant human Cathepsin B-induced cleavage (in vitro enzymatic cleavage assay, UHPLC-MS/MS)
# Format: biochemical
# EXPERIMENTAL PARAMETERS: human, pH 5, 10 μM test compound, Cathepsin B 2 μg/mL, 25 mM MES buffer pH 5.0, 37° C.; read-out: T1/2 Compound
Non-standard residues stand in square brackets, D forms with d. Residues, ends and D or L forms follow the SMILES beside them. Groups on a side chain read outwards from the residue. *: point of attachment. DM1Mal(CH2)2CO = COc1cc2cc(c1Cl)N(C)C(=O)C[C@H](OC(=O)[C@H](C)N(C)C(=O)CCSC1CC(=O)N(CCC(=O)*)C1=O)[C@]1(C)O[C@H]1[C@H](C)[C@@H]1C[C@@](O)(NC(=O)O1)[C@H](OC)/C=C/C=C(\C)C2; Camptothecin(20S-OCO) = CC[C@@]1(OC(=O)*)C(=O)OCc2c1cc1n(c2=O)Cc2cc3ccccc3nc2-1; X1 = CC[C@@]1(O*)C(=O)OCc2c1cc1n(c2=O)Cc2cc3ccccc3nc2-1; X2 = CC(=O)N[C@@H](CSC1CC(=O)N(CCC(=O)*)C1=O)C(=O)O; PEG5 = NCCOCCOCCOCCOCCOCCC(=O)O; PEG4 = NCCOCCOCCOCCOCCC(=O)O; Dab = NCC[C@H](N)C(=O)O; Sar = CNCC(=O)O
VALUE KIND: half-life at 10 μM (min)
Give the value in min but do not write min after it.

Consider the reported half-life at 10 μM for these compounds:
COMPOUND	half-life at 10 μM [min]
CC[C@@]1(OC(=O)CN(C)C(=O)CC[C@H](NC(=O)[C@H](CCCNC(=N)N)NC(=O)[C@H](Cc2ccccc2)NC(=O)CCOCCOCCOCCOCCOCCNC(=O)[C@@H](N)CCCNC(=N)N)C(=O)N[C@@H](Cc2ccccc2)C(=O)O)C(=O)OCc2c1cc1n(c2=O)Cc2cc3ccccc3nc2-1 [Compound 8, Arg-PEG4-Phe-Arg-Glu(Sar-OCPT)-Phe-OH] (H-R[PEG5]FRE([Sar-X1])F-OH; N-terminus assumed)	2.2
COc1cc2cc(c1Cl)N(C)C(=O)C[C@H](OC(=O)[C@H](C)N(C)C(=O)CCSC1CC(=O)N(C[C@H]3CC[C@H](C(=O)NCCCC[C@H](NC(=O)[C@H](CCCNC(N)=O)NC(=O)[C@H](Cc4ccccc4)NC(=O)CCOCCOCCOCCOCCOCCNC(=O)CN4C(=O)CC(SC[C@H](NC(C)=O)C(=O)O)C4=O)C(=O)N[C@@H](Cc4ccc(O)cc4)C(=O)O)CC3)C1=O)[C@]1(C)O[C@H]1[C@H](C)[C@@H]1C[C@@](O)(NC(=O)O1)[C@H](OC)/C=C/C=C(\C)C2 (stereo partly shown)	0.06
COc1cc2cc(c1Cl)N(C)C(=O)C[C@H](OC(=O)[C@H](C)N(C)C(=O)CCSC1CC(=O)N(CCC(=O)NCCCC[C@H](NC(=O)[C@H](CCCCN)NC(=O)[C@H](Cc3ccccc3)NC(=O)CCOCCOCCOCCOCCNC(=O)CCN3C(=O)CC(SC[C@H](NC(C)=O)C(=O)O)C3=O)C(=O)N[C@@H](Cc3ccccc3)C(=O)O)C1=O)[C@]1(C)O[C@H]1[C@H](C)[C@@H]1C[C@@](O)(NC(=O)O1)[C@H](OC)/C=C/C=C(\C)C2 (stereo partly shown) [Compound 12] ({X2-PEG4}-FKK(DM1Mal(CH2)2CO)F-OH)	1.5

Enquiry: // returns reported half-life at 10 μM for input CC[C@@]1(OC(=O)NCC[C@H](NC(=O)[C@H](CCCNC(=N)N)NC(=O)[C@H](Cc2ccccc2)NC(=O)CCOCCOCCOCCOCCOCCNC(=O)[C@@H](N)CCCNC(=N)N)C(=O)N[C@@H](Cc2ccccc2)C(=O)O)C(=O)OCc2c1cc1n(c2=O)Cc2cc3ccccc3nc2-1 [Compound 10, Arg-PEG4-Phe-Arg-Dab(CO-CPT)-Phe-OH] (H-R[PEG5]FR[Dab](Camptothecin(20S-OCO))F-OH; N-terminus assumed)
Return: 0.9

---

# SYSTEM: recombinant human Cathepsin B (Homo sapiens, UniProt P07858)
# Construct: purchased R&D Systems (Bio-Techne AG) 953-CY-010
# MEASUREMENT NOTES: Recombinant human Cathepsin B-induced cleavage (in vitro enzymatic cleavage assay, UHPLC-MS/MS)
# Type: biochemical
# EXPERIMENTAL PARAMETERS: reference Cys-MC-Val-Cit-PABC-MMAF
Non-standard residues stand in square brackets, D forms with d. Residues, ends and D or L forms follow the SMILES beside them. Groups on a side chain read outwards from the residue. *: point of attachment. Camptothecin(20S-OCO) = CC[C@@]1(OC(=O)*)C(=O)OCc2c1cc1n(c2=O)Cc2cc3ccccc3nc2-1; X2 = CC(=O)N[C@@H](CSC1CC(=O)N(CCC(=O)*)C1=O)C(=O)O; Dolaproine = CO[C@@H]([C@@H]1CCCN1)[C@@H](C)C(=O)O; Dil = CC[C@H](C)[C@H](NC)[C@@H](CC(=O)O)OC; NMe2Val = CC(C)[C@@H](C(=O)*)N(C)C; PEG5 = NCCOCCOCCOCCOCCOCCC(=O)O; Cit = NC(=O)NCCC[C@H](N)C(=O)O; PEG4 = NCCOCCOCCOCCOCCC(=O)O; Dap = NC[C@H](N)C(=O)O
VALUE KIND: Ratio (T1/2 Compound/T1/2 Reference)
Form field (numeric): enter value without unit.

COMPOUND	Ratio (T1/2 Compound/T1/2 Reference)
CC[C@H](C)[C@@H]([C@@H](CC(=O)N1CCC[C@H]1[C@H](OC)[C@@H](C)C(=O)N[C@@H](Cc1ccccc1)C(=O)N[C@@H](CCCNC(N)=O)C(=O)N[C@@H](CCCCNC(=O)CCOCCOCCOCCOCCNC(=O)CCN1C(=O)CC(SC[C@H](NC(C)=O)C(=O)O)C1=O)C(=O)N[C@@H](Cc1ccccc1)C(=O)O)OC)N(C)C(=O)[C@@H](NC(=O)[C@H](C(C)C)N(C)C)C(C)C (stereo partly drawn) [Compound 19, AF-Cit-Lys(PEG4-Mal-Cys-Ac)-Phe-OH] (NMe2Val-V[Dil][Dolaproine]F[Cit]K([PEG4-X2])F-OH)	0.09
CC[C@@]1(OC(=O)NC[C@H](NC(=O)[C@H](CCCNC(=N)N)NC(=O)[C@H](Cc2ccccc2)NC(=O)CCOCCOCCOCCOCCOCCNC(=O)[C@@H](N)CCCNC(=N)N)C(=O)N[C@@H](Cc2ccccc2)C(=O)O)C(=O)OCc2c1cc1n(c2=O)Cc2cc3ccccc3nc2-1 [Compound 9, Arg-PEG4-Phe-Arg-Dap(CO-CPT)-Phe-OH] (H-R[PEG5]FR[Dap](Camptothecin(20S-OCO))F-OH; N-terminus assumed)	0.63
CC[C@H](C)[C@@H]([C@@H](CC(=O)N1CCC[C@H]1[C@H](OC)[C@@H](C)C(=O)N[C@@H](Cc1ccccc1)C(=O)N[C@@H](CCCNC(=N)N)C(=O)N[C@@H](Cc1ccccc1)C(=O)N[C@@H](CCCCNC(=O)CCOCCOCCOCCOCCNC(=O)CCN1C(=O)CC(SC[C@H](NC(C)=O)C(=O)O)C1=O)C(=O)O)OC)N(C)C(=O)[C@@H](NC(=O)[C@H](C(C)C)N(C)C)C(C)C (stereo partly drawn) [Compound 3, AF-Arg-Phe-Lys(PEG4-Mal-Cys-Ac)-OH] (NMe2Val-V[Dil][Dolaproine]FRFK([PEG4-X2])-OH)	0.11

Attention now shifts to the item below.
Enquiry: // returns reported Ratio (T1/2 Compound/T1/2 Reference) for input COc1cc2cc(c1Cl)N(C)C(=O)C[C@H](OC(=O)[C@H](C)N(C)C(=O)CCSC1CC(=O)N(C[C@H]3CC[C@H](C(=O)NCCCC[C@H](NC(=O)[C@H](CCCNC(N)=O)NC(=O)[C@H](Cc4ccccc4)NC(=O)CCOCCOCCOCCOCCOCCNC(=O)CN4C(=O)CC(SC[C@H](NC(C)=O)C(=O)O)C4=O)C(=O)N[C@@H](Cc4ccc(O)cc4)C(=O)O)CC3)C1=O)[C@]1(C)O[C@H]1[C@H](C)[C@@H]1C[C@@](O)(NC(=O)O1)[C@H](OC)/C=C/C=C(\C)C2 (stereo partly shown)
Return: 0.005

---

# SYSTEM: T1, recombinant human Cathepsin B (Homo sapiens, UniProt P07858)
# T1 construct: purchased R&D Systems (Bio-Techne AG) 953-CY-010
# MEASUREMENT NOTES: Recombinant human Cathepsin B-induced cleavage (in vitro enzymatic cleavage assay, UHPLC-MS/MS)
# Assay type: biochemical
# EXPERIMENTAL PARAMETERS: human, pH 5, 10 μM test compound, Cathepsin B 2 μg/mL, 25 mM MES buffer pH 5.0, 37° C.; read-out: T1/2 Compound
Non-standard residues stand in square brackets, D forms with d. Residues, ends and D or L forms follow the SMILES beside them. Groups on a side chain read outwards from the residue. *: point of attachment. Camptothecin(20S-OCO) = CC[C@@]1(OC(=O)*)C(=O)OCc2c1cc1n(c2=O)Cc2cc3ccccc3nc2-1; X2 = CC(=O)N[C@@H](CSC1CC(=O)N(CCC(=O)*)C1=O)C(=O)O; Dolaproine = CO[C@@H]([C@@H]1CCCN1)[C@@H](C)C(=O)O; Dil = CC[C@H](C)[C@H](NC)[C@@H](CC(=O)O)OC; NMe2Val = CC(C)[C@@H](C(=O)*)N(C)C; PEG5 = NCCOCCOCCOCCOCCOCCC(=O)O; Cit = NC(=O)NCCC[C@H](N)C(=O)O; PEG4 = NCCOCCOCCOCCOCCC(=O)O
VALUE KIND: half-life at 10 μM (min)
Give the value in min but do not write min after it.

COMPOUND	UNIT SPEC	half-life at 10 μM
CC[C@H](C)[C@@H]([C@@H](CC(=O)N1CCC[C@H]1[C@H](OC)[C@@H](C)C(=O)N[C@@H](Cc1ccccc1)C(=O)N[C@@H](CCCNC(N)=O)C(=O)N[C@@H](CCCCNC(=O)CCOCCOCCOCCOCCNC(=O)CCN1C(=O)CC(SC[C@H](NC(C)=O)C(=O)O)C1=O)C(=O)N[C@@H](Cc1ccccc1)C(=O)O)OC)N(C)C(=O)[C@@H](NC(=O)[C@H](C(C)C)N(C)C)C(C)C (stereo partly drawn) [Compound 19, AF-Cit-Lys(PEG4-Mal-Cys-Ac)-Phe-OH] (NMe2Val-V[Dil][Dolaproine]F[Cit]K([PEG4-X2])F-OH)	min	1.1

Attention now shifts to the item below.
Enquiry: // returns reported half-life at 10 μM for input CC[C@@]1(OC(=O)OC[C@H](NC(=O)[C@H](CCCNC(=N)N)NC(=O)[C@H](Cc2ccccc2)NC(=O)CCOCCOCCOCCOCCOCCNC(=O)[C@@H](N)CCCNC(=N)N)C(=O)N[C@@H](Cc2ccccc2)C(=O)O)C(=O)OCc2c1cc1n(c2=O)Cc2cc3ccccc3nc2-1 [Compound 11, Arg-PEG4-Phe-Arg-Ser(CO-CPT)-Phe-OH] (H-R[PEG5]FRS(Camptothecin(20S-OCO))F-OH; N-terminus assumed)
Return: 2.2
